pIC50 by entry:
Target: T1, human GLP-1 receptor (human, UniProt P43220 24-463)
T1 construct: whole, on cells
Assay: 125I-GLP-1 displacement, membranes of CHOK1 cells expressing human GLP-1 receptor
No end group written: not given here.
Scale: negative log10 of molar concentration, which is what pIC50 denotes.

Below: 2 binders and their reported pIC50.
>>> recorded_measurement("MNHAEGTFTSDVSSYLEGQAAKEFIAWLVKGR (ends and bridges not checked, Not pegylated) [MN-GLP1 (SEQ ID NO: 263)]")
7.30
>>> recorded_measurement("MDHAEGTFTSDVSSYLEGQAAKEFIAWLVKGR (Not pegylated) [MD-GLP1 (SEQ ID NO: 261)]")
7.09

Bench note: what pIC50 did MHHHAEGTFTSDVSSYLEGQAAKEFIAWLVKGR (ends and bridges not checked, Not pegylated) [MHH-GLP1 (SEQ ID NO: 258)] show?
6.46
